Known viability at 100 µM of a selection of compounds
Tested on: MCF7
Assay: Antiproliferative activity against human MCF7 cells assessed as cell viability at 100 uM incubated for 48 to 72 hrs by MTT assay
Format: functional
Details: time 48-72 hrs, read-out: Activity
TEST READOUT: viability at 100 µM (%)

{"COMPOUND": "C[C@H](CC(=O)C[C@@H](C)[C@H]1C[C@H](O)[C@@]2(C)C3=C(C(=O)C[C@]12C)[C@@]1(C)CCC(=O)C(C)(C)[C@@H]1C[C@@H]3O)C(=O)NCCOCCOCCOCCOCCn1cc(CNc2cccc3c2C(=O)N(C2CCC(=O)NC2=O)C3=O)nn1 (stereo partly drawn)", "TEST READOUT": "viability at 100 µM", "MEASUREMENT UNIT": "%", "RESULT": 75.9}
{"COMPOUND": "C[C@H](CC(=O)C[C@@H](C)[C@H]1C[C@H](O)[C@@]2(C)C3=C(C(=O)C[C@]12C)[C@@]1(C)CCC(=O)C(C)(C)[C@@H]1C[C@@H]3O)C(=O)NCCOCCOCCOCCn1cc(CNc2cccc3c2C(=O)N(C2CCC(=O)NC2=O)C3=O)nn1 (stereo partly drawn)", "TEST READOUT": "viability at 100 µM", "MEASUREMENT UNIT": "%", "RESULT": 65.5}
{"COMPOUND": "Cc1ncsc1-c1ccc([C@H](C)NC(=O)[C@@H]2C[C@@H](O)CN2C(=O)[C@@H](NC(=O)CCCc2cn(CCOCCOCCOCCOCCNC(=O)[C@H](C)CC(=O)C[C@@H](C)[C@H]3C[C@H](O)[C@@]4(C)C5=C(C(=O)C[C@]34C)[C@@]3(C)CCC(=O)C(C)(C)[C@@H]3C[C@@H]5O)nn2)C(C)(C)C)cc1", "TEST READOUT": "viability at 100 µM", "MEASUREMENT UNIT": "%", "RESULT": 30.1}
